B1: Dystrobrevin alpha, residues 235 to 294; numbered along this chain, Q9Y4J8 (parent)
chain: ENVFHPVECSYCHSESMMGFRYRCQQCHNYQLCQDCFWRGHAGGSHSNQHQMKEYTSWKS

- Variants of: B1
- assay summary: abundance fitness (aPCA) (normalised: wild type 0, dead -1); higher = more abundant; growth selection in yeast, the domain comes from the species named
- condition details: Homo sapiens
readout kind: abundance fitness
Answers are plain numbers.

INSERT INTO assay_data (mutation_code, readout_kind, value) VALUES
  ('A42E', 'abundance fitness', 0.081);

Provide each entry's abundance fitness from the list below.
1. F4T
2. G44Y
3. T56V

0.06
-0.411
-0.137
